Test: Single oral dose pharmacokinetics of cannabidiol product alone
Format: in vivo, male Sprague-Dawley rats
Conditions: male, Sprague-Dawley, rat; cannabidiol in plasma; single oral dose of cannabidiol product alone (50 mg/kg); n = 4; mean ± SEM; read-out: AUC0–24
Value Kind: AUC(0-t)

- Chem Smiles: "C=C(C)[C@@H]1CCC(C)=C[C@H]1c1c(O)cc(CCCCC)cc1O"
  Value Kind: "AUC(0-t)"
  Result: "4400 ng·h/mL"
